target_or_test_system: OcomOBP7
protocol_details: Binding of fluorescent probe 1-NPN to OcomOBP7 (binding curve, Scatchard)
run_conditions: OcomOBP7 2 μM, 1-NPN 2–20 μM, pH 7.4; read-out: binding constant (Kd) of the protein and probe 1-NPN
measured_endpoint: pKd
One number for each entry, as −log10 of the molar value.

Request: For the compound c1ccc(Nc2cccc3ccccc23)cc1 , give its measured pKd value.
Response: 5.83

###

target_or_test_system: OcomOBP7
protocol_details: Fluorescence competitive binding assay (1-NPN displacement)
Parameters: species or system Ophraella communa
run_conditions: recombinant OcomOBP7 2 μM, 1-NPN 2 μM, 50 mM Tris-HCl pH 7.4, ligand 2–20 μM
Description: Based on previous research on the volatiles of A. artemisiifolia, 26 standard chemical odors were selected to verify the binding characteristics of OcomOBP7 using a fluorescence binding assay (Table 2). Fluorescence competition binding experiments were performed using an F-380 fluorescence spectrophotometer (Gangdong Technology, Tianjin, China), and the quartz cuvette was 1 cm wide. […] The maximum fluorescence value for each addition of 1-NPN was recorded, and three replicates were used. […]
Provide the recorded IC50 for the entries that follow.
Give bare numbers, in µM.

C=CC(C)=CCC=C(C)C | 1.94
CC1=CC[C@H](C(C)C)C=C1 | 4.59
C=C(C)[C@H]1CC=C(C)CC1 [(R)-(+)-Dipentene] | 3.5

Record IC50 for all entries; do not skip any.
1. CC(=O)OC1CC2CCC1(C)C2(C)C (stereo not drawn) [Bornyl acetate]
2. CC1=CCC2CC1C2(C)C (stereo not drawn)
3. C=CC(=C)CC/C=C(\C)CCC=C(C)C [(E)-β-farnesene]

Response:
32.2
10.3
0.76

###

target_or_test_system: OcomOBP7
protocol_details: Fluorescence competitive binding assay (1-NPN displacement)
run_conditions: recombinant OcomOBP7 2 μM, 1-NPN 2 μM, 50 mM Tris-HCl pH 7.4, ligand 2–20 μM
Exercise: for every item that follows, state its recorded log10 of IC50.
Parameter value (number): base-10 log of IC50 in µM.

Return reported log10 of IC50 values for all items listed beneath this line.
1. C=C(C)C1CC=C(C)CC1 (racemic) [DL-Limonene]
2. C=C1C2CCC(C2)C1(C)C (stereo not shown) [Camphene]
3. C=CC(=C)CCC=C(C)C [Myrcene]
4. C=C1CCC2CC1C2(C)C (stereo not drawn) [β-Pinene]

Response:
0.65
1.19
0.80
1.24

For each entry beneath this line, provide reported log10 of IC50.
1. C=C1CCC2(C(C)C)CC12 (stereo not shown) [Sabinene]
2. CCCCCCCC [n-Octane]
3. CC1=CCC(C(C)C)=CC1 [Y-Terpinene]

Response:
1: 0.87; 2: 0.02; 3: 0.87

###

target_or_test_system: OcomOBP7
protocol_details: Fluorescence competitive binding assay (1-NPN displacement)
run_conditions: Ki = [IC50]/(1 + [1-NPN]/K1-NPN); OcomOBP7 2 μM, 1-NPN 2 μM, pH 7.4; read-out: Ki (dissociation constant)
For each entry below, report its pKi value.
Give bare numbers, as −log10 of the molar value.

For orientation, consider the following solved cases.
CC(=O)OC1CC2CCC1(C)C2(C)C (stereo not shown) [Bornyl acetate] | 4.69
C=C1CCC2(C(C)C)CC12 (stereo not shown) [Sabinene] | 5.32
C=C1CCC2CC1C2(C)C (stereo not drawn) [β-Pinene] | 4.96
C=C(C)[C@H]1CC=C(C)CC1 [(R)-(+)-Dipentene] | 5.65

Please go through the list and note pKi for each molecule.
1. CC1=CCC(C(C)C)=CC1 [Y-Terpinene]
2. C=CC(=C)CCC=C(C)C [Myrcene]
3. CCCCCCCC [n-Octane]
4. C=CC(=C)CC/C=C(\C)CCC=C(C)C [(E)-β-farnesene]
5. C=C(C)C1CC=C(C)CC1 (racemic) [DL-Limonene]
6. CC1=CC[C@H](C(C)C)C=C1 [α-phellandrene]
7. C=C1C2CCC(C2)C1(C)C (stereo not shown) [Camphene]
8. C=CC(C)=CCC=C(C)C [Ocimene]

Response:
1. 5.33
2. 5.40
3. 6.17
4. 6.32
5. 5.55
6. 5.54
7. 5.01
8. 5.91

Request: Please give the documented pKi of CC1=CCC2CC1C2(C)C (stereo not drawn) [α-Pinene]
Response: 5.18
